molecular target: WDR5 (Homo sapiens, UniProt P61964)
pIC50: −log10 of the molar value.
measured.metric: pIC50

Sample answers from the record:
- compound: "C[C@H]1CN(c2cc(F)c(C3=CCCN(c4ncc(C#N)s4)C3)c(F)c2NC(=O)c2c[nH]c(=O)cc2C(F)(F)F)CCN1C [Example 100]"
  target.under.test: "WDR5 (Homo sapiens, UniProt P61964)"
  measured.metric: "pIC50"
  assay.result: 7.93
- compound: "CC(C)[C@@H]1CN(c2ncc(-c3c(F)cc(N4C[C@@H](C)N(C)[C@@H](C)C4)c(NC(=O)c4c[nH]c(=O)cc4C(F)F)c3F)cn2)CCO1 [Example 118]"
  target.under.test: "WDR5 (Homo sapiens, UniProt P61964)"
  measured.metric: "pIC50"
  assay.result: 7.92
- compound: "C[C@H]1CN(c2cc(F)c(C3=CCCN(C(=O)OC4CC(F)(F)C4)C3)c(F)c2NC(=O)c2c[nH]c(=O)cc2C(F)F)CCN1C [Example 43]"
  target.under.test: "WDR5 (Homo sapiens, UniProt P61964)"
  measured.metric: "pIC50"
  assay.result: 7.80
- compound: "C[C@@H]1CN(c2cc(F)c(-c3cnc(N4CCOCC4)nc3)c(F)c2NC(=O)c2ccc(F)cc2C(F)(F)F)C[C@H](C)N1C [Example 10]"
  target.under.test: "WDR5 (Homo sapiens, UniProt P61964)"
  measured.metric: "pIC50"
  assay.result: 8.00

a = C[C@H]1CN(c2ncc(-c3c(F)cc(N4CCN(C)[C@@H](C)C4)c(NC(=O)c4c[nH]c(=O)cc4C(F)(F)F)c3F)cn2)CCO1 [Example 60]
b = C[C@@H]1CN(c2cc(F)c(-c3cnc(N4CCOCC4)nc3)c(F)c2NC(=O)c2cn(C)c(=O)cc2C(F)F)C[C@H](C)N1C [Example 40]
Ask | Returns the identifier with the smallest measured pIC50 among a and b . Refer to your chosen item by its label in the answer.
Reply | b

###

Test system: MV4-11 cells
Experiment: Cell proliferation assay (ATPlite)
Format: cell-based
Settings: Homo sapiens, 120 h; MV4-11 cells, five days; read-out: GI MV411 EC50
Method: MV4-11 cells were seeded into a 96-well plate at 1,000 cells/well in 150 μl medium (Alpha-MEM containing 10% FBS, 100 μg/ml Normocin, and 50 μg/ml Gentamycin, Invitrogen). A HP D300 digital dispenser was used to dose cells with DMSO or test compounds across a 10-point range of concentrations (high dose of 10 μM), and cultures were grown in a humidified 5% CO2 incubator at 37° C. […] Luminescent signal was measured using an Envision plate reader equipped with a US-Luminescence detector.
measured.metric: EC50 (nM)

- compound: "Cc1sc(-c2c(F)cc(N3CCN(C)[C@@H](C)C3)c(NC(=O)c3ccc(F)cc3C(F)(F)F)c2F)nc1C(=O)N1CCCC1 [Example 154]"
  measured.metric: "EC50"
  unit.string: "nM"
  assay.result: 92

A = C[C@@H]1CN(c2ncc(-c3c(F)cc(N4CCN(C)[C@@H](C)C4)c(NC(=O)c4c[nH]c(=O)cc4C(F)F)c3F)cn2)C[C@H](C)O1 [Example 33]
B = CC(C)OC(=O)N1CC=C(c2c(F)cc(N3C[C@@H](C)N(C)[C@@H](C)C3)c(NC(=O)c3c[nH]c(=O)cc3C(F)(F)F)c2F)C1 [Example 134]
Ask | Thinking about recorded EC50 values, which is higher, A or B ? Label of pick, please.
Reply | B
